Tested on: OVCAR-5 ovarian
method description: NCI tumour cell line growth inhibition, 48 h; in the data active = GI50 below about 0.43 µM; inactive = the rest
In this exercise, the only acceptable responses are true (1) for active, false (0) for inactive

Record excerpt, results attached:
> print(dat)
                                   compound  discrete.label
1  COc1cc(OC)c(/C=C/S(=O)(=O)Cc2cnc(OC)c(N)c2)c(OC)c1        true (1)
2  O=c1ccn(C2OC(CO)C(O)C2F)c(=O)[nH]1 (configuration not stated)       false (0)
3  CC12OC(c3ccccc3)=CC(c3ccc(Cl)cc3)=C1C(c1ccccc1)=CC2=O (configuration not stated)       false (0)
4  COc1cc(/C=C/C(=O)CC(=O)/C=C/c2cc(OC)c(OC)c(OC)c2)cc(OC)c1OC       false (0)
5  Cc1ccccc1NC(=O)N/C(N)=N/c1nc(-c2cccc([N+](=O)[O-])c2)cs1       false (0)

Q: Tell me the assay call for CCOC(=O)C(N)C[S][Sn]([CH3])([CH3])[Cl] (configuration not stated) please.
Result: false (0)

Q: And O=c1c2cc(Cl)ccc2oc2ccc(OCCCCCN3CCCCC3)cc12 ?
Result: false (0)

Q: And O=Cc1ccc(-c2cc(C=O)c(-c3cccs3)[nH]2)s1 ?
Result: false (0)

Q: And O=C(/C=C/c1ccc(F)cc1)c1ccc(Cl)cc1Cl ?
Result: false (0)

Q: And Cc1cc(I)cc(CN(C)CCCN2CCSCC2)c1O ?
Result: false (0)

Q: And Cc1nc2sc(C(=O)Nc3cccc(Cl)c3C)c(N)c2cc1C(=O)/C=C/c1ccccc1 ?
Result: false (0)

Q: And COc1cc(C(=O)/C(C)=C/c2c[nH]c3ccccc23)cc(OC)c1OC ?
Result: true (1)

---

Tested on: MDA-MB-435
method description: NCI tumour cell line growth inhibition, 48 h
property label: TGI (µM)
Return type: number; implicit unit µM.

The examples below pair each entry with its known result.
compound	study system	TGI [µM]
COC(=O)C1=C(O)C(C(=O)OC)[C@]2(O)[C@H](C(=O)OC)[C@H]1C[C@@H](c1ccc(F)cc1)[C@H]2C(=O)OC (some centres undefined)	MDA-MB-435	61
COC(=O)c1cc2c(cc1Cl)SC(N(N(C)C)S(=O)(=O)c1ccc(Br)s1)=NS2(=O)=O	MDA-MB-435	49.7
Cc1ccccc1NC(=O)N/C(N)=N/c1nc(-c2cccc([N+](=O)[O-])c2)cs1	MDA-MB-435	4.51
COc1ccc(CN(C)c2ccc(CO)c(Cl)c2)cc1	MDA-MB-435	95.4

Here is another compound to look at.
Q: Requested field: TGI. Item: COC(=O)c1c(O)ccc2c1c1c(n2Cc2ccccc2)C(=O)c2ccccc2C1=O
Result: 28

---

Attribute: TGI
Test system: OVCAR-5 ovarian
method description: NCI tumour cell line growth inhibition, 48 h

The examples below pair each entry with its known result.
> print(dat)
                                   compound  property.label  data.value
1   O=C1C(=O)c2c(oc(=O)c3ccccc23)-c2ccccc21             TGI     > 25 µM
2  COc1ccc([N+]2=NC(c3ccc([N+](=O)[O-])cc3)=NN(c3ccccc3)C2)cc1             TGI    > 100 µM
3  O=C1c2cccc3cc([N+](=O)[O-])cc(c23)C(=O)N1CCCN1CCN(CCCNc2ccc3ncn4c5ccccc5c(=O)c2c34)CC1             TGI   > 16.9 µM
4  CC(=O)Nc1ccc(C(=O)NN2C(=O)C(Cl)C2c2ccc(Cl)cc2)cc1 (stereo not given)             TGI    > 100 µM
5  ClC1(Cl)C(c2ccccc2)C1c1ccccc1 (stereo not given)             TGI    > 100 µM
6  COc1cc(C2SCC(=O)N2c2ccccc2Cl)cc(OC)c1OC (stereo not given)             TGI    > 100 µM
7  CCCCOC(=O)NC(=O)c1cn(CCCOC(=O)CCCCCCCCC(=O)OCCCn2cc(C(=O)NC(=O)OCCCC)c(=O)[nH]c2=O)c(=O)[nH]c1=O             TGI    > 100 µM
8  CC12CCC3[C@@H](CC3(C)C)C(O)(CCC1=O)C2 (stereo not given in full)             TGI    > 100 µM
9  C=CCC(N[C@H](CO)c1ccccc1)c1ccc2ccccc2n1 (stereo not given in full)             TGI    > 100 µM

Here is another compound to look at.
Q: Record CC1C[C@@]2(c3ccccc3)C(=O)CCC[C@H]2N1 (stereo not given in full) : what is its TGI with OVCAR-5 ovarian?
Result: > 100 µM
